measured.target: Homer1 EVH1 domain (Homo sapiens)
Sequence (Q86YM7 with tags, fused parts or gaps): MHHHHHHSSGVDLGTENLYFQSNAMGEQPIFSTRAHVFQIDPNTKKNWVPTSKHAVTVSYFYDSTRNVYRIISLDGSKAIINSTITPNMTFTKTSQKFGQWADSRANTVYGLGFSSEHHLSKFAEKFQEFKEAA
measurement.setup: read-out: K D ^Homer1; pH 7.6; SD
endpoint.name: Kd (µM)

INSERT INTO results (sequence_text, experimental_result) VALUES
  ('DIESDFPPPPEDFPAADELP [FAT1]', 98);
